Target: BChE purified from human plasma (Homo sapiens, UniProt P06276)
Construct: BChE purified from human plasma was a gift from Dr. Oksana Lockridge; tissue gift from Dr. Oksana Lockridge (Eppley Institute, University of Nebraska Medical Center); host or cells: human plasma
Sequence (P06276 29-602): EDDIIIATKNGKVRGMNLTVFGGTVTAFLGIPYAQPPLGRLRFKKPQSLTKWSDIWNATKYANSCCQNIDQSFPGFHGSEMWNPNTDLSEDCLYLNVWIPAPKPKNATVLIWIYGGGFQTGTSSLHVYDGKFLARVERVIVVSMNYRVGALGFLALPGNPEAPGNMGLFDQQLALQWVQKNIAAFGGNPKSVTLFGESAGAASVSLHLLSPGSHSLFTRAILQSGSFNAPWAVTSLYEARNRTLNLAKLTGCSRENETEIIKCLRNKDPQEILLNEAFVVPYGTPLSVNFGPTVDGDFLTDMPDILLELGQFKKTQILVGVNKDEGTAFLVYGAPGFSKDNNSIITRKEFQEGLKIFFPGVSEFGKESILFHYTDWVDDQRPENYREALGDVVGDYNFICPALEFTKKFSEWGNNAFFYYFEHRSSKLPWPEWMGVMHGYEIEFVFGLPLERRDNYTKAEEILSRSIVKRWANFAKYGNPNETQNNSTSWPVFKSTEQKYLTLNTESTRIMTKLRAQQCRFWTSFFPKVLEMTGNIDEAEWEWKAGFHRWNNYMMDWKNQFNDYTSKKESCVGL
Assay: Enzyme kinetic study (Ellman's assay, Lineweaver-Burk) with BChE
Assay type: biochemical
Conditions: from Lineweaver-Burk plots
Structures can show the parent of a compound that is named as a salt.
Attribute Measured: BChE mode of inhibition

>  <Molecule>
O=c1c(O)c(-c2ccc(O)c(O)c2)oc2cc(O)cc(O)c12 [Quercetin (4), quercetin]

>  <Result>
(Mixed Non-competitive)

$$$$
>  <Molecule>
Cc1nc(Nc2ncc(C(=O)Nc3c(C)cccc3Cl)s2)cc(N2CCN(CCO)CC2)n1 [Dasatinib (1), dasatinib]

>  <Result>
(Mixed Non-competitive)

$$$$
>  <Molecule>
CN(C)CCOC(=O)COc1ccc(Cl)cc1 [Meclofenoxate Hydrochloride (6), meclofenoxate hydrochloride]

>  <Result>
(Mixed Non-competitive)

$$$$

----------
Target: BChE associated with β-amyloid plaques (Homo sapiens)
Construct: post-mortem brain tissues from sex- and age-matched AD cases; tissue Maritime Brain Tissue Bank, Dalhousie University; host or cells: post-mortem human AD brain: orbitofrontal cortex (plaques, pH 6.8) and thalamus (normal neural elements, pH 8.0)
Sequence (P06276 29-602): as above
Experiment: Karnovsky-Roots histochemical staining, BChE associated with plaques (pH 6.8)
Assay type: biochemical
Conditions: pH 6.8, compared with control staining
Attribute Measured: Inhibition of BChE staining associated with plaques (in words)

>  <Test Smiles>
COC(=O)c1ccc2c(c1)NC(=O)/C2=C(\Nc1ccc(N(C)C(=O)CN2CCN(C)CC2)cc1)c1ccccc1

>  <Result>
complete inhibition

$$$$
>  <Test Smiles>
Cc1nc(Nc2ncc(C(=O)Nc3c(C)cccc3Cl)s2)cc(N2CCN(CCO)CC2)n1

>  <Result>
complete inhibition

$$$$

----------
Molecular target: recombinant human AChE (Homo sapiens)
Construct: purchased MilliporeSigma Canada Ltd. (Oakville, Ontario, Canada)
Experiment: Enzyme kinetic study (Ellman's assay, Lineweaver-Burk) with AChE
Assay type: biochemical
Details: recombinant human AChE, ATChI substrate, pH 7.0, triplicate; read-out: Experimental AChE Ki
Attribute Measured: Ki (µM)
Numeric answer only, unit µM assumed.

# Ki of O=c1c(O)c(-c2ccc(O)c(O)c2)oc2cc(O)ccc12 [Fisetin (3), fisetin] = 110

----------
Biological target: recombinant human AChE (Homo sapiens, UniProt P22303)
Construct: purchased MilliporeSigma Canada Ltd. (Oakville, Ontario, Canada)
Sequence (P22303 32-614): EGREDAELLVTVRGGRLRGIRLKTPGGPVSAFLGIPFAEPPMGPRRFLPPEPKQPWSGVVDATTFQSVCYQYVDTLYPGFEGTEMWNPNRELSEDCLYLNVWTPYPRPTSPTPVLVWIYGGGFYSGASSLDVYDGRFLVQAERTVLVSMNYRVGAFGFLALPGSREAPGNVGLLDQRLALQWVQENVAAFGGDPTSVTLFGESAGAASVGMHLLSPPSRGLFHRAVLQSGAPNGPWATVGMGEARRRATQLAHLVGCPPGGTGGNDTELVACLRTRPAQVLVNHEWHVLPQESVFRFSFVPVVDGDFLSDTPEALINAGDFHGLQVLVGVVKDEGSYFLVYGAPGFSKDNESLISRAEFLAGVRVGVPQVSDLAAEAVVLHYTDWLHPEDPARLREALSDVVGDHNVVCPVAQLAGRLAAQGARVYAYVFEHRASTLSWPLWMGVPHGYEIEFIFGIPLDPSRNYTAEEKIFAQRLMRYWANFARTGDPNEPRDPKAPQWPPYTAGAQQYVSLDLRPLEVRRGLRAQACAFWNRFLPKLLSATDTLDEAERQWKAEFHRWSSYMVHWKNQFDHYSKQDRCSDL
Assay: Enzyme kinetic study (Ellman's assay, Lineweaver-Burk) with AChE
Assay type: biochemical
Structures can show the parent of a compound that is named as a salt.
Attribute Measured: Ki (µM)
Respond with the bare value in µM.

>  <Molecule>
COc1ccc(COc2ccc(Cc3cnc(N)nc3N)cc2OC)cc1 [GW2580 (5), GW2580]

>  <Unit>
µM

>  <Ki>
71

$$$$
>  <Molecule>
CN(C)CCOC(=O)COc1ccc(Cl)cc1 [Meclofenoxate Hydrochloride (6), meclofenoxate hydrochloride]

>  <Unit>
µM

>  <Ki>
63.2

$$$$
>  <Molecule>
O=c1c(O)c(-c2ccc(O)c(O)c2)oc2cc(O)cc(O)c12 [Quercetin (4), quercetin]

>  <Unit>
µM

>  <Ki>
62.2

$$$$

Record summary for Cc1nc(Nc2ncc(C(=O)Nc3c(C)cccc3Cl)s2)cc(N2CCN(CCO)CC2)n1 [Dasatinib (1), dasatinib] : reported Ki = 28.2

Record summary for COC(=O)c1ccc2c(c1)NC(=O)/C2=C(\Nc1ccc(N(C)C(=O)CN2CCN(C)CC2)cc1)c1ccccc1 [Nintedanib (2), nintedanib] : reported Ki = 7.1

----------
Molecular target: AChE associated with normal neural elements (Homo sapiens)
Construct: post-mortem brain tissues from sex- and age-matched AD cases; tissue Maritime Brain Tissue Bank, Dalhousie University; host or cells: post-mortem human AD brain: orbitofrontal cortex (plaques, pH 6.8) and thalamus (normal neural elements, pH 8.0)
Sequence (P22303 32-614): as above
Experiment: Karnovsky-Roots histochemical staining, AChE associated with normal neural elements (pH 8.0)
Assay type: biochemical
Conditions: pH 8.0, relative to controls
Counter-ions that a name gives are not always drawn.
Attribute Measured: Inhibition of AChE staining associated with normal neural elements (in words)

>  <Compound>
CN(C)CCOC(=O)COc1ccc(Cl)cc1 [Meclofenoxate Hydrochloride (6), meclofenoxate hydrochloride]

>  <Result>
did not inhibit

$$$$
>  <Compound>
Cc1nc(Nc2ncc(C(=O)Nc3c(C)cccc3Cl)s2)cc(N2CCN(CCO)CC2)n1

>  <Result>
no inhibition

$$$$
>  <Compound>
COc1ccc(COc2ccc(Cc3cnc(N)nc3N)cc2OC)cc1

>  <Result>
did not inhibit

$$$$
>  <Compound>
COC(=O)c1ccc2c(c1)NC(=O)/C2=C(\Nc1ccc(N(C)C(=O)CN2CCN(C)CC2)cc1)c1ccccc1

>  <Result>
no inhibition

$$$$

----------
Biological target: BChE associated with normal neural elements (Homo sapiens, UniProt P06276)
Construct: post-mortem brain tissues from sex- and age-matched AD cases; tissue Maritime Brain Tissue Bank, Dalhousie University; host or cells: post-mortem human AD brain: orbitofrontal cortex (plaques, pH 6.8) and thalamus (normal neural elements, pH 8.0)
Sequence (P06276 29-602): as the sequence (P06276 29-602) above
Assay: Karnovsky-Roots histochemical staining, BChE associated with normal neural elements (pH 8.0)
Type: biochemical
Details: pH 8.0, relative to controls
Structures can show the parent of a compound that is named as a salt.
Attribute Measured: Inhibition of BChE staining associated with normal neural elements (in words)

>  <Molecule>
CN(C)CCOC(=O)COc1ccc(Cl)cc1 [Meclofenoxate Hydrochloride (6), meclofenoxate hydrochloride]

>  <Result>
did not inhibit

$$$$
>  <Molecule>
COC(=O)c1ccc2c(c1)NC(=O)/C2=C(\Nc1ccc(N(C)C(=O)CN2CCN(C)CC2)cc1)c1ccccc1 [Nintedanib (2), nintedanib]

>  <Result>
no inhibition

$$$$
>  <Molecule>
COc1ccc(COc2ccc(Cc3cnc(N)nc3N)cc2OC)cc1 [GW2580 (5), GW2580]

>  <Result>
did not inhibit

$$$$
>  <Molecule>
Cc1nc(Nc2ncc(C(=O)Nc3c(C)cccc3Cl)s2)cc(N2CCN(CCO)CC2)n1 [Dasatinib (1), dasatinib]

>  <Result>
no inhibition

$$$$

Source of measurements: paper PMC11984419
